- System: OVCAR-3 ovarian
- method: NCI tumour cell line growth inhibition, 48 h
Measured TGI of individual entries

[in] Quickly give me recorded TGI for O=C1c2ccccc2C(=O)c2c(NCCNC(=O)C3CCCN3)ccc(NCCNC(=O)C3CCCN3)c21 (stereo not drawn)
[out] > 100 µM

[in] Quickly give me recorded TGI for O=C1Nc2ccccc2[C@]12C[C@H]2c1ccccn1
[out] > 100 µM

[in] Quickly give me recorded TGI for O=C(O)c1ccc(-c2ccc(C(=O)O)cc2I)c(I)c1
[out] > 100 µM

---

- Test system: A549 NSCLC
- method: NCI tumour cell line growth inhibition, 48 h
experimental readout: TGI

Examples with their reported TGI follow.
- molecule: "CC12CCc3ccccc3C1=Nc1ccccc12 (stereo unspecified)"
  TGI: "> 100 µM"
- molecule: "O=[N+]([O-])c1cc(Cl)cc2c1nc(NCCO)c1ccccc12"
  TGI: "> 100 µM"
- molecule: "COc1ccc(CCNCc2cccc(OC)c2OC)cc1OC"
  TGI: "> 100 µM"

[in] Quickly give me recorded TGI for Cc1[nH]c(=O)nc(CC(O)(c2ccccc2)c2ccccc2)c1-c1ccccc1
[out] > 100 µM

[in] Quickly give me recorded TGI for C/C(=N\NC(=O)/C(C#N)=C\c1ccc(N(CCC#N)CCC#N)cc1)c1ccccc1
[out] > 10 µM

[in] Quickly give me recorded TGI for COc1cccc(Cn2cc3c(c2)-c2oncc2CC3)c1
[out] > 56.1 µM

---

- Tested on: LOX IMVI melanoma
- method: NCI tumour cell line growth inhibition, 48 h
Measured TGI of individual entries

Examples with their reported TGI follow.
- compound: "c1ccc2[nH]c3[nH]c4[nH]c5ccccc5[nH]c4[nH]c3[nH]c2c1"
  TGI: "> 100 µM"
- compound: "CCOC(=O)C1=C(O)c2ccccc2C(=O)C1=O"
  TGI: "> 100 µM"

Kindly review the next compound as well.
[in] Quickly give me recorded TGI for CCOC(=O)C1=C(C)N(C)C(=S)NC1c1cccc(O)c1 (stereo not drawn)
[out] > 100 µM

---

- Tested on: SK-MEL-28 melanoma
- method: NCI tumour cell line growth inhibition, 48 h
experimental readout: TGI

Examples with their reported TGI follow.
- compound: "Cc1nccc2c1cnc1ccnn12"
  result: "> 100 µM"
- compound: "NC(=O)C(=CN1C(=O)CC(=O)NC1=S)C(N)=O"
  result: "> 100 µM"
- compound: "CC(=O)OCC1OC(n2c3c(c(-c4ccc(Cl)cc4)c(C#N)c2=S)C(=O)CC(C)(C)C3)C(OC(C)=O)C(OC(C)=O)C1OC(C)=O (stereo unspecified)"
  result: "65.9 µM"
- compound: "COc1cc2nc(-c3ccc(-n4cncc4-c4ccc(N)cc4)cc3)sc2c(OC)c1OC"
  result: "> 100 µM"
- compound: "C=CCNC(=O)/C(Cc1cc(Br)c(OC)c(Br)c1O)=N\\O"
  result: "31 µM"

Kindly review the next compound as well.
[in] Quickly give me recorded TGI for CCOC(=O)c1nc2ccc(Cl)cc2c2c1CCO2
[out] > 100 µM

---

- Tested on: SW-620 colon
- method: NCI tumour cell line growth inhibition, 48 h; in the data active = GI50 below about 0.43 µM; inactive = the rest
Output constraint: value belongs to t for active, f for inactive

Completed entries (count: 5):
- compound: "Cc1ccc2[nH]c(C(=O)NN3C(=O)CSC34CCCC(C)C4)c(-c3ccccc3)c2c1 (configuration not stated)"
  label value: "f"
- compound: "O=C1/C(=C/c2ccc([N+](=O)[O-])s2)Oc2ccccc21"
  label value: "t"
- compound: "CC1CCC2C(C)C3C(CC4C5CC=C6CC(OC7OC(CO)C(O)C(OC8OC(CO)C(O)C(O)C8O)C7OC7OC(C)C(O)C(O)C7O)CCC6(C)C5CCC43C)N2C1 (configuration not stated)"
  label value: "f"
- compound: "COc1cccc(Cn2cc3c(c2)-c2oncc2CC3)c1"
  label value: "t"
- compound: "CCCC[P+](c1ccccc1)(c1ccccc1)c1ccccc1"
  label value: "f"

[in] Hi, do you know how O=C(NCCN1CCOCC1)Nc1ccc(-c2cc3c(Nc4ccc(Oc5cccc(C(F)(F)F)c5)c(Cl)c4)ncnc3s2)cc1 came out in this test?
[out] f

[in] Hi, do you know how COc1cccc2c1cc([N+](=O)[O-])c1c(C(=O)O)cc3c(c12)OCO3 came out in this test?
[out] f

---

- System: MDA-MB-435
Output constraint: value belongs to label 1 (active), label 0 (inactive)

Completed entries (count: 3):
- compound: "COc1cc(-c2nc(SCC(=O)Nc3ccc(C(C)=O)cc3)[nH]c(=O)c2C#N)cc(OC)c1OC"
  label value: "label 0"
- compound: "CCCC(=O)NC(c1ccc2c(c1)OCO2)c1ccc2cccnc2c1O (centres undefined)"
  label value: "label 0"
- compound: "COc1cc(C2CC(c3ccc4c(c3)OCO4)=NN2C(C)=O)cc(OC)c1OC (centres undefined)"
  label value: "label 1"

Would you kindly look at the next entry?
[in] Hi, do you know how CCn1c(-c2nonc2N)nc2c(C#CC(C)(C)O)nc(O[C@@H](CN)c3ccccc3)cc21 came out in this test?
[out] label 1

---

Measured TGI of individual entries
- Test system: SF-539 CNS
- method: NCI tumour cell line growth inhibition, 48 h

Examples with their reported TGI follow.
- compound: "COc1ccc2c(c1OC)-c1c(c3ccc([N+](=O)[O-])cc3c(=O)n1CCCN=[N+]=[N-])C2=O"
  TGI: "40.3 µM"
- compound: "Oc1ccc(Br)cc1/C=N/NC(=S)NC12CC3CC(CC(C3)C1)C2"
  TGI: "11.3 µM"
- compound: "CO[C@@](c1ccccc1)(c1nc(C#N)c(N)o1)C(F)(F)F"
  TGI: "> 100 µM"
- compound: "Cn1c2ccccc2c(=O)c2c(O)cc3c(c21)C=CC1(CCCC1)O3"
  TGI: "> 100 µM"

[in] Quickly give me recorded TGI for c1ccc2cc(OCC3CO3)c(OCC3CO3)cc2c1 (stereo not given)
[out] 9.13 µM

[in] Quickly give me recorded TGI for NC(=O)C12C3C4C1C1C2C3C41C(N)=O (stereo not given)
[out] > 100 µM

[in] Quickly give me recorded TGI for O=C(CSCC(=O)N/N=C/c1cccc(OCc2ccccc2)c1)N/N=C/c1cccc(OCc2ccccc2)c1
[out] > 100 µM

[in] Quickly give me recorded TGI for N#CCC(=O)N/N=C1/C(=O)NC(=O)C(=O)C1c1nc2ccccc2s1 (stereo not given)
[out] > 100 µM

[in] Quickly give me recorded TGI for O=[N+]([O-])c1cc(Cl)cc2c1nc(NCCO)c1ccccc12
[out] > 100 µM

---

- Test system: KM12 colon
- method: NCI tumour cell line growth inhibition, 48 h
experimental readout: TGI (µM)
Give your result in µM as a bare value.

Examples with their reported TGI follow.
- compound: "CCn1c(-c2nonc2N)nc2c(C#CC(C)(C)O)nc(O[C@@H](CN)c3ccccc3)cc21"
  endpoint unit: "µM"
  TGI: 1.51
- compound: "O=[N+]([O-])/C(Cl)=C(\\Nc1ccccc1)C(Cl)=C(Cl)Cl"
  endpoint unit: "µM"
  TGI: 32
- compound: "COc1cc(C)cc2c1C(=O)C(Br)=CC2=O"
  endpoint unit: "µM"
  TGI: 28.8

Kindly review the next compound as well.
[in] Quickly give me recorded TGI for CCCC[P+](c1ccccc1)(c1ccccc1)c1ccccc1
[out] 66.3

---

- Test system: MCF7 breast
- method: NCI tumour cell line growth inhibition, 48 h; in the data active = GI50 below about 0.43 µM; inactive = the rest
Output constraint: value belongs to active, inactive

Completed entries (count: 2):
- compound: "CCN(CC)CCCCCOc1cc(O)c2c(=O)cc(-c3ccccc3)oc2c1"
  label value: "inactive"
- compound: "Cc1ccc2[nH]c(C(=O)NN3C(=O)CSC34CCCC(C)C4)c(-c3ccccc3)c2c1 (stereo not drawn)"
  label value: "inactive"

[in] Hi, do you know how CCOC(=O)N1C/C(=C/c2ccc(OC)cc2)C(=O)/C(=C/c2ccc(OC)cc2)C1 came out in this test?
[out] active

---

- System: SN12C renal
- method: NCI tumour cell line growth inhibition, 48 h
Measured TGI of individual entries

- molecule: "CCOC(=O)c1cc(C2CCN(CC(C)CC)C2=S)c(C(=O)/C=C(/C)N)[nH]1 (stereo not given)"
  system under test: "SN12C renal"
  experimental readout: "TGI"
  result: "> 50 µM"

[in] Quickly give me recorded TGI for COc1ccc2[nH]c(-c3cccc(N(C)C)c3)cc(=O)c2c1
[out] > 100 µM

[in] Quickly give me recorded TGI for O=C1c2ccccc2C(=O)c2c(NCCNC(=O)C3CCCN3)ccc(NCCNC(=O)C3CCCN3)c21 (stereo not given)
[out] > 100 µM

---

- System: SW-620 colon
- method: NCI tumour cell line growth inhibition, 48 h
Measured TGI of individual entries

Examples with their reported TGI follow.
- molecule: "COC(=O)C(/C(=N/N)C(=O)Nc1cc(Cl)c(Cl)cc1Cl)c1nc2ccc(Cl)cc2[nH]c1=O (stereo not given)"
  TGI: "> 100 µM"
- molecule: "CC1=CCC[C@@](C)(O)[C@@H]2C[C@H]3C(CSc4ccccc4)C(=O)O[C@H]3[C@@H](O2)[C@H](C)CCC1 (stereo not given in full)"
  TGI: "93.2 µM"
- molecule: "COc1cc(/C=C2/SC(c3ccccc3)N(c3ccc(Cl)cc3)C2=O)cc(OC)c1OC (stereo not given)"
  TGI: "> 100 µM"
- molecule: "CC(C)CC(CNC(Cc1ccc(Cl)cc1)C(N)=O)NC(=O)C(Cc1cnc[nH]1)NC(=O)CNC(=O)C(NC(=O)C(C)NC(=O)C(Cc1c[nH]c2ccccc12)NC(=O)C(CCC(=O)O)NC(=O)C(N)Cc1ccccc1)C(C)C (stereo not given)"
  TGI: "> 133 µM"
- molecule: "Cc1cc(NC(=O)C(=O)Cc2cnc3ccccc3n2)c(S(=O)(=O)O)cc1Cl"
  TGI: "> 100 µM"

[in] # return TGI of CS(=O)(=O)c1[nH]nc2[nH]c(=O)[nH]c(=O)c12 (system: SW-620 colon)
[out] > 10 µM
